Cited source: paper PMC9090415

Kindly state % inhibition Apo pol 10' 10 for each of the entries shown.
measured.on: P. falciparum apicoplast DNA polymerase (Pf-apPOL) (Plasmodium falciparum)
Sequence (Q8ILY1 entry or part of it): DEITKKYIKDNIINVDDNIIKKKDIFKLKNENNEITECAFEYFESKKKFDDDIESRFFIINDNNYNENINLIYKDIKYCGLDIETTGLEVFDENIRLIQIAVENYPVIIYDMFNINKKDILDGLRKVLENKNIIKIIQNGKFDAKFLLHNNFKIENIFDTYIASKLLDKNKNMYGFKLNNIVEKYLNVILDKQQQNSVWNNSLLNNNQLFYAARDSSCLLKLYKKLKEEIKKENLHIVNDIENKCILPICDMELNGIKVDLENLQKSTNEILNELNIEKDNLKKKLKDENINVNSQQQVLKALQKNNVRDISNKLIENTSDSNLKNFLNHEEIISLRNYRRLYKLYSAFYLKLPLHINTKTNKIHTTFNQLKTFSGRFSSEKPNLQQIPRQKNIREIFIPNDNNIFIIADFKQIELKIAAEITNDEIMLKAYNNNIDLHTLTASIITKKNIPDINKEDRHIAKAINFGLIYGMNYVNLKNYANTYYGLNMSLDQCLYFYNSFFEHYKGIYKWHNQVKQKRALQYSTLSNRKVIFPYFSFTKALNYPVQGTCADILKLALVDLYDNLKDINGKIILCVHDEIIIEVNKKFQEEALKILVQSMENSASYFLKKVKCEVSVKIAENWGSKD
assay.info: Fluorescence-based high-throughput DNA polymerase assay (molecular beacon), primary screen and dose-response
Assay type: biochemical
run.parameters: DRC-1; read at 10'; concentration 10
One number for each entry, in %.

A selection of reference data follows.
Q: Quote % inhibition Apo pol 10' 10 reported for Cn1nc(-c2nc(-c3ccccc3)no2)c2c1CCN(C(=O)Cc1cccs1)C2 [Molecule 58] please.
A: 35

Q: Quote % inhibition Apo pol 10' 10 reported for Cc1nc(C)c2c(n1)N(CC1CCCCC1)C(=O)CC2 [KU0218606] please.
A: 47.3749

Now examine the next entry.
Q: Quote % inhibition Apo pol 10' 10 reported for COc1ccc(C2CC(c3ccc(Cl)cc3Cl)Nc3nc(N)nn32)cc1OC (stereo not drawn) [Molecule 43] please.
A: 50
